- assay-overview: Cmax in ICR mouse at 25 mg/kg, IG by LC-MS/MS analysis
- Format: ADME, organism-based
- run-parameters: in vivo, po

>  <smiles-notation>
CCN(CCN)Cc1cccc(Br)c1

>  <Cmax [ng/mL]>
348

$$$$

* * *

- assay-overview: AUC (0 to infinity) in ICR mouse at 5 mg/kg, iv by LC-MS/MS analysis
- Assay type: ADME, organism-based
- run-parameters: in vivo

>  <smiles-notation>
CCN(CCN)Cc1cccc(Br)c1

>  <units>
ng·h/mL

>  <AUC(0-inf)>
295

$$$$

* * *

- assay-overview: AUC (0 to t) in ICR mouse at 5 mg/kg, iv by LC-MS/MS analysis
- Type: ADME, organism-based
- run-parameters: in vivo
endpoint: AUC(0-t) (ng·h/mL)

>  <smiles-notation>
CCN(CCN)Cc1cccc(Br)c1

>  <readout-value>
282

$$$$

* * *

- assay-overview: MRT (0 to t) in ICR mouse at 5 mg/kg, iv by LC-MS/MS analysis
- Type: ADME, organism-based
- run-parameters: in vivo

>  <smiles-notation>
CCN(CCN)Cc1cccc(Br)c1

>  <MRT last (h)>
1.76

$$$$

* * *

- assay-overview: Oral bioavailability in ICR mouse at 25 mg/kg by LC-MS/MS analysis
- Type: ADME, organism-based
- run-parameters: in vivo

>  <smiles-notation>
CCN(CCN)Cc1cccc(Br)c1

>  <bioavailability>
66.4%

$$$$

* * *

- assay-overview: Half life in ICR mouse at 5 mg/kg, iv by LC-MS/MS analysis
- Assay type: ADME, organism-based
- run-parameters: in vivo
endpoint: half-life

>  <smiles-notation>
CCN(CCN)Cc1cccc(Br)c1

>  <readout-value>
1.82 h

$$$$

* * *

- assay-overview: AUC (0 to infinity) in ICR mouse at 25 mg/kg, IG by LC-MS/MS analysis
- Type: ADME, organism-based
- run-parameters: in vivo, po

>  <smiles-notation>
CCN(CCN)Cc1cccc(Br)c1

>  <units>
µg·h/mL

>  <AUC(0-inf)>
0.98

$$$$

* * *

viability at 10 µM by entry:
- Tested on: Cortical neurone
- assay-overview: Neuroprotective activity against NMDA-induced excitotoxic cell death in C57BL/6 mouse primary cortical neurons assessed as cell viability at 10 uM by CCK8 assay (reference value: 16.31 +/- 3.19 %)
- Type: functional
- run-parameters: C57BL/6, Cortical neurone, read-out: Activity

>  <compound>
CCN(CCN)C(C)c1cccc(Br)c1F (centres undefined)

>  <tested-system>
Cortical neurone

>  <viability at 10 µM (%)>
77

$$$$
>  <compound>
CCN(CCN)Cc1cccc(Br)c1Cl

>  <tested-system>
Cortical neurone

>  <viability at 10 µM (%)>
47.1

$$$$
>  <compound>
CCN(CCN1CCCC1)Cc1cccc(Br)c1

>  <tested-system>
Cortical neurone

>  <viability at 10 µM (%)>
19.3

$$$$
>  <compound>
CCN(CCN)Cc1cccc(C#N)c1F

>  <tested-system>
Cortical neurone

>  <viability at 10 µM (%)>
79.7

$$$$
>  <compound>
CCN(CCN)Cc1ccc(F)c(Br)c1

>  <tested-system>
Cortical neurone

>  <viability at 10 µM (%)>
26.6

$$$$
>  <compound>
CCN(CCN)Cc1cccc(Br)c1I

>  <tested-system>
Cortical neurone

>  <viability at 10 µM (%)>
11.5

$$$$
>  <compound>
CCN(CCN)Cc1cccc([N+](=O)[O-])c1

>  <tested-system>
Cortical neurone

>  <viability at 10 µM (%)>
36

$$$$
>  <compound>
CCN(CCN)C(C)c1cc(Br)ccc1F (centres undefined)

>  <tested-system>
Cortical neurone

>  <viability at 10 µM (%)>
90.7

$$$$
>  <compound>
CCN(CCN)C(C)c1cccc(C#N)c1 (centres undefined)

>  <tested-system>
Cortical neurone

>  <viability at 10 µM (%)>
85.7

$$$$
>  <compound>
CCN(CCN)C(C)c1c(Cl)ccc(C#N)c1F (centres undefined)

>  <tested-system>
Cortical neurone

>  <viability at 10 µM (%)>
64.5

$$$$
>  <compound>
CCN(CCN)C(C)c1cc(C#N)ccc1Br (centres undefined)

>  <tested-system>
Cortical neurone

>  <viability at 10 µM (%)>
55

$$$$
>  <compound>
CCN(CCN)Cc1ccccc1Br

>  <tested-system>
Cortical neurone

>  <viability at 10 µM (%)>
46.2

$$$$
>  <compound>
CCN(CCN)Cc1cc(Br)cc(C#N)c1

>  <tested-system>
Cortical neurone

>  <viability at 10 µM (%)>
33

$$$$
>  <compound>
CCN(CCN)Cc1cccc(Br)c1Br

>  <tested-system>
Cortical neurone

>  <viability at 10 µM (%)>
86.5

$$$$

Data origin, for the record: ChEMBL document CHEMBL6096677
